Ki reference
- target.entity: Sodium-dependent dopamine transporter (Rattus norvegicus)
- test.summary: Inhibition of [3H]- DA reuptake into rat striatal synaptosomes
Write it as a number; the unit µM goes unstated.

Examples from the recorded data:
- molecule: "NC[C@@H](c1ccccc1)[C@@H](O)c1ccccc1 (racemic)"
  unit.abbreviation: "µM"
  Ki: 6.6
- molecule: "CC(C)(C)[C@H](O)[C@@H](CN)c1ccccc1 (racemic)"
  unit.abbreviation: "µM"
  Ki: 4.57
- molecule: "CN(C)C[C@@H](c1ccccc1)[C@@H](O)C(C)(C)C (racemic)"
  unit.abbreviation: "µM"
  Ki: 1.2
- molecule: "COc1ccc([C@H](CN)[C@@H](O)C2CCCCC2)cc1 (racemic)"
  unit.abbreviation: "µM"
  Ki: 1.46
- molecule: "COc1ccc([C@H](CN(C)C)[C@@H](O)C2CCCCC2)cc1 (racemic)"
  unit.abbreviation: "µM"
  Ki: 0.64

We next turn to a different molecule, shown below.
Challenge: What value of Ki on Sodium-dependent dopamine transporter (Rattus norvegicus) does Cc1cc(C)c([C@H](O)[C@@H](CN(C)C)c2ccccc2)c(C)c1 (racemic) have?
Response given: 4.88

###

- target.entity: Glutamate NMDA receptor
- test.summary: Compound was evaluated for noncompetitive inhibition of N-methyl-D-aspartate (NMDA) Receptor by the displacement of [3H]MK-801 in rat brain membranes
- Format: cell membranes
readout.label: pIC50
Scale: pIC50 equals -log10([C]), with [C] in mol/L.

Challenge: For the compound CN(C)C[C@@H](c1ccccc1)[C@@H](O)c1ccccc1 (racemic) , what pIC50 is on record?
Response given: 4.33

###

- Species on record: Rattus norvegicus
- test.summary: Compound was evaluated for Dopamine reuptake inhibition in rat striatal synaptosomes
readout.label: pKd
Kindly note that pKd refers to -log10 of the concentration in mol/L and answer with the value alone.

Challenge: State the recorded pKd for this entry: CC(C)(C)[C@H](O)[C@@H](CN)c1ccc2ccccc2c1 (racemic)
Response given: 6.56

###

- target.entity: Glutamate NMDA receptor
- test.summary: Inhibition of N-methyl-D-aspartate (NMDA) Receptor, by the displacement of [3H]MK-801 in rat brain membranes
- Assay type: cell membranes
Heads up, the class ranges for IC50 are label 0 = under 10 µM, label 1 = from 10 µM up to 80 µM, label 2 = 80 µM and over

Reference set, count: 3
- compound: "COc1ccc([C@H](CN)[C@@H](O)C2CCCCC2)cc1 (racemic)"
  qualitative.label: "label 2"
- compound: "CN(C)C[C@@H](c1ccc2ccccc2c1)[C@@H](O)c1ccccc1 (racemic)"
  qualitative.label: "label 2"
- compound: "Cc1cc(C)c([C@H](O)[C@@H](CN(C)C)c2ccccc2)c(C)c1 (racemic)"
  qualitative.label: "label 2"

Turning now to a further compound:
Challenge: // bin(item) where item = NC[C@@H](c1ccccc1)[C@@H](O)c1ccccc1 (racemic)
Response given: label 0

###

- target.entity: Norepinephrine transporter (Rattus norvegicus, UniProt Q9WTR4)
- Sequence (Q9WTR4 whole entry): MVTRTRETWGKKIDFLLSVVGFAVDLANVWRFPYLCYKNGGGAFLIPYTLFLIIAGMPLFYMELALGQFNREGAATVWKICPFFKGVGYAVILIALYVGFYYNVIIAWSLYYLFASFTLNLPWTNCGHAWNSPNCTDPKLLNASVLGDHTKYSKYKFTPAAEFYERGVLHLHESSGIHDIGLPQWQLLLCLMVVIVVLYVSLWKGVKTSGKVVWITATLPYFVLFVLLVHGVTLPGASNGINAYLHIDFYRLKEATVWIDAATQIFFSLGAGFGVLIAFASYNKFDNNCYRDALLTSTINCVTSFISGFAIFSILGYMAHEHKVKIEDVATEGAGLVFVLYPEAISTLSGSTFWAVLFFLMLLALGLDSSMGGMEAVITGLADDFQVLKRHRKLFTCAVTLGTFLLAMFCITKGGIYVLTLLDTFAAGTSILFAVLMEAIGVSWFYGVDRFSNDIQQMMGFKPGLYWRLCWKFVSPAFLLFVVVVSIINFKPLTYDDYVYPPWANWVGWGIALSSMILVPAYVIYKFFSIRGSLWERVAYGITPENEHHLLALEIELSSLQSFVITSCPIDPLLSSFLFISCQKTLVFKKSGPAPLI
Ki listing for selected molecules.
Number plus unit, in that order.

- molecule: "COc1ccc([C@H](CN(C)C)[C@@H](O)C2CCCCC2)cc1 (racemic)"
  readout.label: "Ki"
  value: "0.22 µM"
- molecule: "CCOc1ccccc1OCC1CNCCO1 (racemic)"
  readout.label: "Ki"
  value: "0.17 µM"
- molecule: "Cc1cc(C)c([C@H](O)[C@@H](CN(C)C)c2ccccc2)c(C)c1 (racemic)"
  readout.label: "Ki"
  value: "8.5 µM"

Challenge: Field request: Ki | item: Cc1cc(C)c([C@H](O)[C@@H](CN)c2ccccc2)c(C)c1 (racemic)
Response given: 8.6 µM

Challenge: How about CN(C)C[C@@H](c1ccc2ccccc2c1)[C@@H](O)C(C)(C)C (racemic) ?
Response given: 0.01 µM

Challenge: Let us now turn to CC(C)(C)[C@H](O)[C@@H](CN)c1ccccc1 (racemic)
Response given: 3.8 µM

Challenge: Please give the result for NC[C@@H](c1ccccc1)[C@@H](O)c1ccccc1 (racemic) too.
Response given: 5.78 µM

Challenge: Now try CN(C)C[C@@H](c1ccccc1)[C@@H](O)C(C)(C)C (racemic) .
Response given: 0.83 µM

Challenge: Can you check CN(C)C[C@@H](c1ccccc1)[C@@H](O)c1ccccc1 (racemic) next?
Response given: 0.99 µM

Challenge: # repeat for COc1ccc([C@H](CN)[C@@H](O)C2CCCCC2)cc1 (racemic)
Response given: 0.33 µM

###

Recorded measurements of pKd, one per entry
- target.entity: Sodium-dependent dopamine transporter (Homo sapiens)
- test.summary: Equilibrium dissociation constant (KD) for Competitive binding between [3H]WIN-35428 and the compound at human transporter-hDAT
Please express pKd as -log10 of the molar concentration.

# count of solved cases: 2
- compound: "CC(C)(C)[C@H](O)[C@@H](CN)c1ccccc1 (racemic)"
  value: 5.14
- compound: "CN(C)C[C@@H](c1ccccc1)[C@@H](O)C(C)(C)C (racemic)"
  value: 4.67

Challenge: Report pKd for Cc1cc(C)c([C@H](O)[C@@H](CN)c2ccccc2)c(C)c1 (racemic) tested on Sodium-dependent dopamine transporter (Homo sapiens).
Response given: 6.47

Challenge: Now consider COc1ccc([C@H](CN)[C@@H](O)C2CCCCC2)cc1 (racemic) .
Response given: 5.37

Challenge: Also check CN(C)C[C@@H](c1ccc2ccccc2c1)[C@@H](O)C(C)(C)C (racemic)
Response given: 6.47

###

- target.entity: Sodium-dependent dopamine transporter (Homo sapiens, UniProt Q01959)
- Sequence (Q01959 whole entry): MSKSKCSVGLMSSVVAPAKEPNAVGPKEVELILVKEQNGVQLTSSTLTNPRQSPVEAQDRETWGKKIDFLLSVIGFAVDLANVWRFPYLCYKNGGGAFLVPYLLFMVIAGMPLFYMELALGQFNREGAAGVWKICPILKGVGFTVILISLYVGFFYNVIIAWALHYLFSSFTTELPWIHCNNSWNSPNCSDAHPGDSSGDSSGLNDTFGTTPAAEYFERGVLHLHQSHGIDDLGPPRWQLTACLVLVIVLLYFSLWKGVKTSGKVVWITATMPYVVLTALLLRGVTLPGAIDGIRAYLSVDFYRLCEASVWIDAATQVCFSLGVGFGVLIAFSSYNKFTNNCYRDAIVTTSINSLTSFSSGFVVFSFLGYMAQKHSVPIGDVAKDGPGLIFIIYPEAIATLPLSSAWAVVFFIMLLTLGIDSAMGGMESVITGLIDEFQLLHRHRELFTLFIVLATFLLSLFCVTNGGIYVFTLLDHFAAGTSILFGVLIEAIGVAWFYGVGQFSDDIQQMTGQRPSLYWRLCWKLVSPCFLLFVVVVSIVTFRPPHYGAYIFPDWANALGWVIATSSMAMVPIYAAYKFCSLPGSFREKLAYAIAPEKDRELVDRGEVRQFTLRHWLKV
- test.summary: Equilibrium dissociation constant (KD) for Competitive binding between [3H]WIN-35428 and the compound at human transporter -hDAT
readout.label: Kd (µM)
Numeric only. Scale: µM

Challenge: Field request: Kd | item: CN(C)C[C@@H](c1ccccc1)[C@@H](O)c1ccccc1 (racemic)
Response given: 12

###

Here, each record is paired with measured pKd data.
- target.entity: Sodium-dependent dopamine transporter (Homo sapiens)
- test.summary: Equilibrium dissociation constant (KD) for Competitive binding between [3H]WIN-35428 and the compound at human transporter-hDAT
Note on units: pKd is unitless, being -log10 of a concentration expressed in mol/L.

- molecule: "COc1ccc([C@H](CN(C)C)[C@@H](O)C2CCCCC2)cc1 (racemic)"
  target.entity: "Sodium-dependent dopamine transporter (Homo sapiens)"
  pKd: 5.46

Challenge: What measured pKd is associated with NC[C@@H](c1ccc2ccccc2c1)[C@@H](O)c1ccccc1 (racemic) on Sodium-dependent dopamine transporter (Homo sapiens)?
Response given: 6.85

Challenge: Now try Cc1cc(C)c([C@H](O)[C@@H](CN(C)C)c2ccccc2)c(C)c1 (racemic) .
Response given: 4.38

###

- target.entity: Sodium-dependent dopamine transporter (Rattus norvegicus, UniProt P23977)
- Sequence (P23977 whole entry): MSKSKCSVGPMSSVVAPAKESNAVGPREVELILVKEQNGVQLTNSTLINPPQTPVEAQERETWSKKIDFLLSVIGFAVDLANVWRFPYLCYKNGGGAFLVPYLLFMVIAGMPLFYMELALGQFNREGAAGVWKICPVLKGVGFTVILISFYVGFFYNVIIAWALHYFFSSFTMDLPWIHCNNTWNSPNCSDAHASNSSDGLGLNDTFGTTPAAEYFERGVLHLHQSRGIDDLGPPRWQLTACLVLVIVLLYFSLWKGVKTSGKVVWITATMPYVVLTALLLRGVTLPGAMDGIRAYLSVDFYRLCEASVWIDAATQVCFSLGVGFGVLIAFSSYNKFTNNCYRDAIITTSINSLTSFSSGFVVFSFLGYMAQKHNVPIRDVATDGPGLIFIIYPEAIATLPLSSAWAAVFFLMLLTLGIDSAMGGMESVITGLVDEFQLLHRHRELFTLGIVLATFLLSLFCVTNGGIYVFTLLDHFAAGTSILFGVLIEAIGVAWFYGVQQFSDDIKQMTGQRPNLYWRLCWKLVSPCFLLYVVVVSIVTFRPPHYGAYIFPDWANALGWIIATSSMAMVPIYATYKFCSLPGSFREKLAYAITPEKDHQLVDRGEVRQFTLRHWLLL
- test.summary: Inhibition of [3H]- DA reuptake into rat striatal synaptosomes
List of log10(Ki) values.
Response schema: value (number) is log10 of Ki in units of nM.

A selection of reference data follows.
- molecule: "CN(C)C[C@@H](c1ccccc1)[C@@H](O)c1ccccc1 (racemic)"
  readout.label: "log10(Ki)"
  value: 3.19
- molecule: "Cc1cc(C)c([C@H](O)[C@@H](CN)c2ccccc2)c(C)c1 (racemic)"
  readout.label: "log10(Ki)"
  value: 3.73
- molecule: "CCOc1ccccc1OCC1CNCCO1 (racemic)"
  readout.label: "log10(Ki)"
  value: 4.68

Challenge: What does the record list as log10(Ki) for CC(C)(C)[C@H](O)[C@@H](CN)c1ccc2ccccc2c1 (racemic) ?
Response given: 2.08

Challenge: // query: CCc1nn(CCCN2CCN(c3cccc(Cl)c3)CC2)c(=O)n1CCOc1ccccc1
Response given: 3.38

Challenge: Try this molecule next: CN(C)C[C@@H](c1ccc2ccccc2c1)[C@@H](O)C(C)(C)C (racemic)
Response given: 1.78

###

- target.entity: Glutamate NMDA receptor
- test.summary: Inhibition of N-methyl-D-aspartate (NMDA) Receptor, by the displacement of [3H]MK-801 in rat brain membranes
- Format: cell membranes
Below, each entry is listed alongside its reported pIC50.
// scale note: pIC50 = -log10(conc_M); give the bare number

- compound: "CN(C)C[C@@H](c1ccc2ccccc2c1)[C@@H](O)C(C)(C)C (racemic)"
  pIC50: 4.68
- compound: "CN(C)C[C@@H](c1ccccc1)[C@@H](O)C(C)(C)C (racemic)"
  pIC50: 3.92
- compound: "CC(C)(C)[C@H](O)[C@@H](CN)c1ccc2ccccc2c1 (racemic)"
  pIC50: 5.52
- compound: "Cc1cc(C)c([C@H](O)[C@@H](CN)c2ccccc2)c(C)c1 (racemic)"
  pIC50: 4.20
- compound: "CC(C)(C)[C@H](O)[C@@H](CN)c1ccccc1 (racemic)"
  pIC50: 4.85

Please look at the following compound next.
Challenge: State the recorded pIC50 for this entry: NC[C@@H](c1ccc2ccccc2c1)[C@@H](O)c1ccccc1 (racemic)
Response given: 4.19
